measurementProtocol: soluble on expression in E. coli; label from the status in PepcDB or PDB records
measurementLabel: soluble on expression in E. coli

{"columns": ["residues", "result"],
 "data": [
  ["MSLSPKVAWWCRHPLTFLMEAADDLCYSIVDLEDGFHMGYLPFAAVQDKLQSIADIDLNQYEGSPAETIKRLRAKAINRLVKEVAQLFLDHEPDILAGKFDQSLVELSRFSPQLKEIETMTTNAVFHHPNVVRIKIAGFEVLGDLLTDFLTSVLEKQPRPKGKLLKFMLPPEHQIAPDEDNYSKILKVTDYIAGMTDLQATLLYQQLRGEGHHHHHH", "soluble"],
  ["MKDKVYKRPVSILVVIYAQDTKRVLMLQRRDDPDFWQSVTGSVEEGETAPQAAMREVKEEVTIDVVAEQLTLIDCQRTVEFEIFSHLRHRYAPGVTRNTESWFCLALPHERQIVFTEHLAYKWLDAPAAAALTKSWSNRQAIEQFVINAA", "soluble"],
  ["MTHPFEPFFDKDSKILILGSFPSIKSRQDGFYYQHPRNRFWPILETLFNAKLENITEQQAFLRKKHIALWDVLQSCKIKNSDDKTISYAKANDLNLILSQTKIQAIFTTGQSAYRFFVKFHPRLEAIALPSTSPANLNFSFEQLLQNYEIIKKFTKLEHHHHHH", "not soluble"],
  ["EPGSSEGLGLLNVHTVLTGSKQLTKTEAVLNLNNQKAKVKGYEIHVGRSQVLDEQPLELDNGECDGAISECGQIMGTYLHGFFDEAEALNLITEWVNGTQVKQQDFEVLKEQGINRIADAIEQHMNLDFLFK", "not soluble"]
]}
